The measurements presented in this section are drawn from patent US20260131009A1.

- system name: PI3Kα (Homo sapiens, UniProt P42336, H1047R)
- Sequence (P42336 whole entry H1047R): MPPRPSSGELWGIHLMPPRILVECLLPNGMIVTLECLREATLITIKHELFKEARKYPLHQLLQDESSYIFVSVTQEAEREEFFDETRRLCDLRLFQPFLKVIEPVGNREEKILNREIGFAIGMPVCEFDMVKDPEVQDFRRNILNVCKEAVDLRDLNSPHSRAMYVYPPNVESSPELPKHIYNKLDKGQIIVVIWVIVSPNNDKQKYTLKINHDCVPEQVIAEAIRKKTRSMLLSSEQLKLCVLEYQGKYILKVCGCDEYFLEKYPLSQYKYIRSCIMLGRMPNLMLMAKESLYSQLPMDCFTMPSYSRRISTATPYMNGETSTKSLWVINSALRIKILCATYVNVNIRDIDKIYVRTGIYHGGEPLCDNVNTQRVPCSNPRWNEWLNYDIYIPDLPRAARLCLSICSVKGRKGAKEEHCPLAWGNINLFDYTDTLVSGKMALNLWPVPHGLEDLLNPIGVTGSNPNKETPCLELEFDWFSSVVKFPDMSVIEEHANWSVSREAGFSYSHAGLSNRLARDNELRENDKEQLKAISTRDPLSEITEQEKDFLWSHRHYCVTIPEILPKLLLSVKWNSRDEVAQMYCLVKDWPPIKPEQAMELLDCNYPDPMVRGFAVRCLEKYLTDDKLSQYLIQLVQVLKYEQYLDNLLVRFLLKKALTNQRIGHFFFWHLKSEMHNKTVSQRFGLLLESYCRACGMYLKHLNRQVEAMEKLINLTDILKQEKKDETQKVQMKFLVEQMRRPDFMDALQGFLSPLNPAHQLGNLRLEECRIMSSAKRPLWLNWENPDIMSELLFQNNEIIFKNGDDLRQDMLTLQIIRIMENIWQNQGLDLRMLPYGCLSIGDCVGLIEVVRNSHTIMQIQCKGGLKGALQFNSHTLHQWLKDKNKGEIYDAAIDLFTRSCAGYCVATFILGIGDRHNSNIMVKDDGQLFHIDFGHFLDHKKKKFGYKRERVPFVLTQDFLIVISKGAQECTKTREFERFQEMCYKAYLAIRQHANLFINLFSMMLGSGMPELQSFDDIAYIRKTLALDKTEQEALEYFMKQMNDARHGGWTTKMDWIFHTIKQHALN
- Sequence (P27986 whole entry partner): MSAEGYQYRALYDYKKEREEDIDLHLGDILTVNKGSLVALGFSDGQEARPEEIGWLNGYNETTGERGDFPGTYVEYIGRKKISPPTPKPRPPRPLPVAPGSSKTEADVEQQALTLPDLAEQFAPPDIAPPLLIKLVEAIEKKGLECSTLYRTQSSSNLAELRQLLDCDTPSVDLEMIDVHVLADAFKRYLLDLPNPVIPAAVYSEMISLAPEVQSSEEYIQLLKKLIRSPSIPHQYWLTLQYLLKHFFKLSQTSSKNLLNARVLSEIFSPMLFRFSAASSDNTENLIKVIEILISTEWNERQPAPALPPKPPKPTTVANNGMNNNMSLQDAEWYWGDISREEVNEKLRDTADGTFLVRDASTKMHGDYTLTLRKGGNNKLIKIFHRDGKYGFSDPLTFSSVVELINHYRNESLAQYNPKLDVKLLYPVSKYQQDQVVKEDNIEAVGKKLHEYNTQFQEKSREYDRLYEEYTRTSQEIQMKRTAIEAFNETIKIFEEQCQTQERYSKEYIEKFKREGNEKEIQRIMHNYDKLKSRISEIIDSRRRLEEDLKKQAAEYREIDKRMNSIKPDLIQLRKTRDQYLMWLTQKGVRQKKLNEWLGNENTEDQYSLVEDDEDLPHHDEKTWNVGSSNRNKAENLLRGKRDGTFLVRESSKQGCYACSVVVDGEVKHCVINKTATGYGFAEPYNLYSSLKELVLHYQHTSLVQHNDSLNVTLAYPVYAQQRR
- test method notes: ADP-Glo IC50 assay
- conditions: class symbols; key not given
pIC50: −log10 of the molar value.
# pIC50 values compiled below

compound	pIC50
O=C(O)CCCCCCCCCNC(=O)c1cc(NC(=O)c2cc(F)cc(C(F)(F)F)c2)c2c(c1)C(=O)N[C@@H]2c1cc(F)ccc1Cl	> 7.00
Cc1cc(Br)c2oc(N3CCN(C(=O)CCOCCOCCNC(=O)c4cnc(Nc5ccccc5C)c(NC(=O)c5csc6ccccc56)c4)CC3)cc(=O)c2c1	5.00 to 6.00
NC(=O)CCCCCCCCCNC(=O)c1cc(NC(=O)c2cc(F)cc(C(F)(F)F)c2)c2c(c1)C(=O)N[C@H]2c1cc(F)ccc1Cl	5.00 to 6.00
NC(=O)CCCCCCCCCNC(=O)c1cc(NC(=O)c2cc(F)cc(C(F)(F)F)c2)c2c(c1)C(=O)N[C@@H]2c1cc(F)ccc1Cl	> 7.00
Cc1ccccc1Nc1ncc(C(=O)NCCCCCCCNc2cccc3c2C(=O)N(C2CCC(=O)NC2=O)C3=O)cc1NC(=O)c1csc2ccccc12 (stereo not shown)	6.30 to 7.00
O=C1CCC(N2Cc3cc(C(=O)NCCCCCCCCCNC(=O)c4cc(NC(=O)c5nsc6ccccc56)c5n4CC(=O)N[C@@H]5c4cc(F)ccc4Cl)ccc3C2=O)C(=O)N1 (stereo partly shown)	> 7.00
NC(=O)CCCCCCCCCNC(=O)c1cc(NC(=O)c2nsc3ccccc23)c2n1CC(=O)N[C@@H]2c1cc(F)ccc1Cl	> 7.00
O=C1CCC(N2Cc3cc(C(=O)NCCCCCCCNC(=O)c4cnc(Nc5cc(F)ccc5Cl)c(NC(=O)c5csc6ccccc56)c4)ccc3C2=O)C(=O)N1 (stereo not shown)	6.30 to 7.00
Cc1ccccc1Nc1ncc(C(=O)NCCCCCCCCCNc2ccc3c(c2)C(=O)N(C2CCC(=O)NC2=O)C3=O)cc1NC(=O)c1csc2ccccc12 (stereo not shown)	6.30 to 7.00
Cc1ccccc1Nc1ncc(C(=O)NCCOCCOCCC(=O)N[C@H](C(=O)N2C[C@H](O)C[C@H]2C(=O)N[C@@H](C)c2ccc(-c3scnc3C)cc2)C(C)(C)C)cc1NC(=O)c1csc2ccccc12	5.00 to 6.00

Ask | Quick check: pIC50 of O=C1CCC(N2Cc3cc(C#CCN4CCC(NC(=O)c5cnc(Nc6cc(F)ccc6Cl)c(NC(=O)c6csc7ccccc67)c5)CC4)ccc3C2=O)C(=O)N1 (stereo not shown) ?
Reply | 5.00 to 6.00

Ask | If you can, please state the reported pIC50 value of "Cc1ccccc1Nc1ncc(C(=O)NCCCC(=O)N[C@H](C(=O)N2C[C@H](O)C[C@H]2C(=O)NCc2ccc(-c3scnc3C)cc2)C(C)(C)C)cc1NC(=O)c1csc2ccccc12" .
Reply | 6.00 to 6.30

Ask | What does the data say about its pIC50? Entry: "CCCCCCCCCCCCNC(=O)c1cnc(Nc2ccccc2C)c(NC(=O)c2csc3ccccc23)c1"
Reply | 5.00 to 6.00

Ask | Return reported pIC50; argument: Cc1ccccc1Nc1ncc(C(=O)NCCCCCCCNC(=O)c2ccc3c(c2)CN(C2CCC(=O)NC2=O)C3=O)cc1NC(=O)c1csc2ccccc12 (stereo not shown)
Reply | 6.30 to 7.00

Ask | State the recorded pIC50 for this entry: Cc1ccccc1Nc1ncc(C(=O)NCCCCCC(=O)NCc2ccc3c(c2)C(=O)N(C2CCC(=O)NC2=O)C3)cc1NC(=O)c1csc2ccccc12 (stereo not shown)
Reply | 6.30 to 7.00

Ask | Could you share which pIC50 value was measured for O=C1CCC(N2C(=O)c3ccc(NCCOCCOCCOCCOCCOCCOCCOCCOCCOCCOCCOCCOCCNC(=O)c4cc(NC(=O)c5cc(F)cc(C(F)(F)F)c5)c5c(c4)C(=O)N[C@@H]5c4cc(F)ccc4Cl)cc3C2=O)C(=O)N1 (stereo partly shown) ?
Reply | 5.00 to 6.00

Ask | Please give the measured pIC50 for this compound: Cc1cc([C@H](C)Nc2ccccc2C(=O)O)c2oc(N3CCN(C(=O)CCOCCNc4ccc5c(c4)C(=O)N(C4CCC(=O)NC4=O)C5=O)CC3)cc(=O)c2c1 (stereo partly shown)
Reply | 5.00 to 6.00

* * *

# pIC50 annotations
- system name: PI3Kα (Homo sapiens, UniProt P42336, H1047R)
- test method notes: ADP-Glo IC50 assay
- Assay type: biochemical
- conditions: class symbols; key not given
pIC50: −log10 of the molar value.

compound	system name	pIC50
O=C1CCC(N2C(=O)c3ccc(NCCCCNC(=O)c4cc(NC(=O)c5cc(F)cc(C(F)(F)F)c5)c5c(c4)C(=O)N[C@@H]5c4cc(F)ccc4Cl)cc3C2=O)C(=O)N1 (stereo partly drawn)	PI3Kα (Homo sapiens, UniProt P42336, H1047R)	6.00 to 6.30

Ask | Please look up its pIC50: "Cc1ccccc1Nc1ncc(C(=O)N[C@H](CCC(=O)N[C@H](C(=O)N2C[C@H](O)C[C@H]2C(=O)NCc2ccc(-c3scnc3C)cc2)C(C)(C)C)C(O)O)cc1NC(=O)c1csc2ccccc12"
Reply | 5.00 to 6.00

Ask | Request the reported pIC50 associated with O=C1CCC(N2C(=O)c3ccc(NCCCNC(=O)c4cc(NC(=O)c5cc(F)cc(C(F)(F)F)c5)c5c(c4)C(=O)N[C@@H]5c4cc(F)ccc4Cl)cc3C2=O)C(=O)N1 (stereo partly drawn)
Reply | 6.30 to 7.00

Ask | // returns reported pIC50 for input "Cc1ccccc1Nc1ncc(C(=O)NCCCCCCCC(=O)N[C@H](C(=O)N2C[C@H](O)C[C@H]2C(=O)NCc2ccc(-c3scnc3C)cc2)C(C)(C)C)cc1NC(=O)c1csc2ccccc12"
Reply | 6.30 to 7.00

* * *

Examples of compounds with documented pIC50 follow.
- system name: PI3Kα (Homo sapiens, UniProt P42336, H1047R)
- test method notes: ADP-Glo IC50 assay
- conditions: class symbols; key not given
pIC50: −log10 of the molar value.

compound	pIC50
O=C1CCC(N2Cc3cc(C(=O)NCCOCCOCCOCCOCCOCCOCCOCCOCCOCCOCCOCCOCCNC(=O)c4cc(NC(=O)c5cc(F)cc(C(F)(F)F)c5)c5c(c4)C(=O)N[C@H]5c4cc(F)ccc4Cl)ccc3C2=O)C(=O)N1 (stereo partly shown)	6.00 to 6.30
O=C1CCC(N2C(=O)c3ccc(NCCCCCNC(=O)c4cnc(Nc5cc(F)ccc5Cl)c(NC(=O)c5csc6ccccc56)c4)cc3C2=O)C(=O)N1 (stereo not shown)	6.30 to 7.00
Cc1ccccc1Nc1ncc(C(=O)NCCCC(=O)N[C@H](C(=O)N2C[C@H](O)C[C@H]2C(=O)N[C@@H](C)c2ccc(-c3scnc3C)cc2)C(C)(C)C)cc1NC(=O)c1csc2ccccc12	6.00 to 6.30
Cc1ccccc1Nc1ncc(C(=O)NCCCCCCCCCNc2cccc3c2C(=O)N(C2CCC(=O)NC2=O)C3=O)cc1NC(=O)c1csc2ccccc12 (stereo not shown)	6.30 to 7.00
O=C1CCC(N2Cc3cc(C(=O)NCCCCCCCNC(=O)c4cc(NC(=O)c5cc(F)cc(C(F)(F)F)c5)c5c(c4)C(=O)N[C@H]5c4cc(F)ccc4Cl)ccc3C2=O)C(=O)N1 (stereo partly shown)	> 7.00

Ask | So what does the record say about pIC50 for "Cc1cc([C@@H](C)Nc2ccccc2)c2oc(N3CCN(C(=O)CCOCCOCCNC(=O)c4cnc(Nc5ccccc5C)c(NC(=O)c5csc6ccccc56)c4)CC3)cc(=O)c2c1" ?
Reply | > 7.00

Ask | Name the reported pIC50 value associated with the compound "Cc1cc(Br)c2oc(N3CCN(C(=O)CCCCCCCNC(=O)c4cnc(Nc5ccccc5C)c(NC(=O)c5csc6ccccc56)c4)CC3)cc(=O)c2c1"
Reply | 6.30 to 7.00

Ask | Data request, read-out pIC50, for Cc1cc([C@@H](C)Nc2ccccc2C(=O)O)c2oc(N3CCN(C(=O)CCCNc4cccc5c4C(=O)N(C4CCC(=O)NC4=O)C5=O)CC3)cc(=O)c2c1 (stereo partly shown)
Reply | 6.00 to 6.30

Ask | Fill in the blank: the reported pIC50 of "Cc1ccccc1Nc1ncc(C(=O)NCCOCCOCCC(=O)N[C@H](C(=O)N2C[C@H](O)C[C@H]2C(=O)NCc2ccc(-c3scnc3C)cc2)C(C)(C)C)cc1NC(=O)c1csc2ccccc12" is ____.
Reply | 5.00 to 6.00

Ask | pIC50 for O=C1CCC(N2Cc3cc(C#CCNC(=O)c4cc(NC(=O)c5cc(F)cc(C(F)(F)F)c5)c5c(c4)C(=O)N[C@@H]5c4cc(F)ccc4Cl)ccc3C2=O)C(=O)N1 (stereo partly shown) ?
Reply | > 7.00

* * *

In this section, each of the compounds is paired with its reported pIC50.
- system name: PI3Kα (Homo sapiens, UniProt P42336, H1047R)
- test method notes: ADP-Glo IC50 assay
- Assay type: biochemical
- conditions: class symbols; key not given
pIC50: −log10 of the molar value.

Reference set (4 entries):
compound	pIC50
Cc1ccccc1Nc1ncc(C(=O)NCCCCCNC(=O)c2ccc3c(c2)CN(C2CCC(=O)NC2=O)C3=O)cc1NC(=O)c1csc2ccccc12 (centres unmarked)	6.30 to 7.00
Cc1ccccc1Nc1ncc(C(=O)NCCCCCCC(=O)N[C@H](C(=O)N2C[C@H](O)C[C@H]2C(=O)NCc2ccc(-c3scnc3C)cc2)C(C)(C)C)cc1NC(=O)c1csc2ccccc12	6.30 to 7.00
Cc1ccccc1Nc1ncc(C(=O)NCCCCCCCCCC(N)=O)cc1NC(=O)c1csc2ccccc12	> 7.00
Cc1ncsc1-c1ccc(CNC(=O)[C@@H]2C[C@@H](O)CN2C(=O)[C@@H](NC(=O)CCCCCCCCCNC(=O)c2cnc(Nc3cc(F)ccc3Cl)c(NC(=O)c3csc4ccccc34)c2)C(C)(C)C)cc1	6.30 to 7.00

Ask | // returns reported pIC50 for input O=C1CCC(N2Cc3cc(C(=O)NCCCCCCCCCCNC(=O)c4cc(NC(=O)c5cccc(C(F)(F)F)c5)c5c(c4)C(=O)N[C@H]5c4cc(F)ccc4Cl)ccc3C2=O)C(=O)N1 (some centres unmarked)
Reply | 6.30 to 7.00
